// data source = paper PMC11887051

biological target: TREK-2 (Homo sapiens, UniProt P57789); assay: TREK-2 thallium flux assay (hTREK-2/HEK); format: cell-based; design: expressed in transfected cells; host or cells: HEK293
Sequence (P57789 whole entry): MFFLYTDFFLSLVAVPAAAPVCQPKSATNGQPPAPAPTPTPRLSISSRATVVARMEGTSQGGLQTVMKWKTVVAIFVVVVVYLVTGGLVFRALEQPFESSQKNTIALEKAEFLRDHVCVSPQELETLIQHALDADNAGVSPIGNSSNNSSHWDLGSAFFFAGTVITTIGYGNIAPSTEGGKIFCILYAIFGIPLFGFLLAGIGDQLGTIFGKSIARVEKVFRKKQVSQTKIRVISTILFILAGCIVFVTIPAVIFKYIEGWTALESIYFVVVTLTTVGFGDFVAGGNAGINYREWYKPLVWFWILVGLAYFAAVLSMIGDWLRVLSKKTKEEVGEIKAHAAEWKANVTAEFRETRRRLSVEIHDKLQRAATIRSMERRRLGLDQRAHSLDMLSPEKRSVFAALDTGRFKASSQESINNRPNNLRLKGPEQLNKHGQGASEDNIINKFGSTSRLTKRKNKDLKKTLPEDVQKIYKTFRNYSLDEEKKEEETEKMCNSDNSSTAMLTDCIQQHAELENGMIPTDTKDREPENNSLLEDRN
quantity: EC50 (nM)

compound: Cc1cc(OC(F)(F)F)ccc1CNC(=O)c1ccc(-n2cncn2)nc1 [Compound 14c]
measuredResult: 360
--
compound: O=C(NCc1ccc(OC(F)(F)F)cc1F)c1ccc2ncnn2c1 [Compound 19b]
measuredResult: 300
--
compound: Cc1cc(OC(F)(F)F)ccc1CNC(=O)c1ccc2ncnn2c1 [Compound 19a]
measuredResult: 150
--
compound: COc1cc(OC(F)(F)F)ccc1CNC(=O)c1ccc(-n2cncn2)nc1 [Compound 14b]
measuredResult: 410
--
compound: O=C(NCc1ccc(Br)cc1Cl)c1ccc(-c2ncn[nH]2)cc1 [Compound 14a]
measuredResult: 730
--
compound: CS(=O)(=O)Nc1ccc(C(=O)NCc2ccc(Cl)cc2Cl)cc1 [Compound 13]
measuredResult: 3200

---

biological target: UniProt:O95069; test: TREK-1 thallium flux assay (hTREK-1/CHO); assay type: cell-based; design: host or cells: CHO
pEC50: −log10 of the molar value.

compound: Cc1cc(OC(F)(F)F)ccc1CNC(=O)c1ccc2ncnn2c1 [Compound 19a]
pEC50: 5.42
--
compound: COc1cc(OC(F)(F)F)ccc1CNC(=O)c1ccc(-n2cncn2)nc1 [Compound 14b]
pEC50: 5.82
--
compound: CS(=O)(=O)Nc1ccc(C(=O)NCc2ccc(Cl)cc2Cl)cc1
pEC50: 5.09
--
compound: O=C(NCc1ccc(OC(F)(F)F)cc1F)c1ccc2ncnn2c1 [Compound 19b]
pEC50: 5.55
--
compound: O=C(NCc1ccc(Br)cc1Cl)c1ccc(-c2ncn[nH]2)cc1 [Compound 14a]
pEC50: 5.80

---

biological target: mouse TREK-1 (Mus musculus); experiment: mouse TREK-1 MPC assay; conditions: manual patch clamp
Sequence (P97438 whole entry): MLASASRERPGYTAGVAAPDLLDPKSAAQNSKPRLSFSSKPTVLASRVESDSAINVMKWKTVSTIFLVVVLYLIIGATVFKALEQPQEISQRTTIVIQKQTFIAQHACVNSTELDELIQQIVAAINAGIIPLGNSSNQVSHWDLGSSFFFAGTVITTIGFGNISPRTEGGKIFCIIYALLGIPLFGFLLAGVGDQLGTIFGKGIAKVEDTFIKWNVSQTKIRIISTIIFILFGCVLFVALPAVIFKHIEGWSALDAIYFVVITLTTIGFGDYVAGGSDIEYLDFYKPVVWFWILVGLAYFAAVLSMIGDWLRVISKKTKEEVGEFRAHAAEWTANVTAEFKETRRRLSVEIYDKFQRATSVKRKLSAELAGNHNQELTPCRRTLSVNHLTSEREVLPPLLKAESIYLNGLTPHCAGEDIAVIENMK
pEC50: −log10 of the molar value.
quantity: pEC50

compound: O=C(NCc1ccc(Br)cc1Cl)c1ccc(-c2ncn[nH]2)cc1 [Compound 14a]
measuredTarget: mouse TREK-1 (Mus musculus)
quantity: pEC50
measuredResult: 5.72
//
compound: Cc1cc(OC(F)(F)F)ccc1CNC(=O)c1ccc(-n2cncn2)nc1 [Compound 14c]
measuredTarget: mouse TREK-1 (Mus musculus)
quantity: pEC50
measuredResult: 5.55
//
compound: Cc1cc(OC(F)(F)F)ccc1CNC(=O)c1ccc2ncnn2c1 [Compound 19a]
measuredTarget: mouse TREK-1 (Mus musculus)
quantity: pEC50
measuredResult: 5.30
//
compound: O=C(NCc1ccc(OC(F)(F)F)cc1F)c1ccc2ncnn2c1 [Compound 19b]
measuredTarget: mouse TREK-1 (Mus musculus)
quantity: pEC50
measuredResult: 5.57

---

assay: mouse PO PK study (C57BL/6); assay type: in vivo; details: male, C57BL/6, mouse, brain, po, 3 mg/kg, 3 mg/kg PO, 2 h, read-out: free brain level
quantity: concentration at 2 h (nM)

compound: O=C(NCc1ccc(OC(F)(F)F)cc1F)c1ccc2ncnn2c1 [Compound 19b]
unitTag: nM
measuredResult: 920

---

target: TREK-1 (Homo sapiens); experiment: TREK-1 thallium flux assay (hTREK-1/CHO); conditions: control compound, table footnote
Sequence (O95069 whole entry): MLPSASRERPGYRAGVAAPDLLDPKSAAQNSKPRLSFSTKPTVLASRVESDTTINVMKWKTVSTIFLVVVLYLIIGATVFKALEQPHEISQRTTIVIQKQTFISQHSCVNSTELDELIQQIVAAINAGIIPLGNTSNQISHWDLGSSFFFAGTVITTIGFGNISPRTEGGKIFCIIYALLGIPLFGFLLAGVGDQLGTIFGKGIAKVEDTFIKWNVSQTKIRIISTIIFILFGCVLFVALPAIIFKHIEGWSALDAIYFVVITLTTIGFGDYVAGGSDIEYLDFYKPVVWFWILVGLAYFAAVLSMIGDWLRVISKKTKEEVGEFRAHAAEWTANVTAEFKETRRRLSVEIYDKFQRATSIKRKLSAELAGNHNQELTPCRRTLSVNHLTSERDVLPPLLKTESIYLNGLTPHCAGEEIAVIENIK

molecule: c1ccc(-c2nnn[nH]2)c(Nc2cccc3c2CCCC3)c1 [BL-1249, reference compound]
IC50: 5.2 µM
